Ref: the SangsterLogP compilation

Measured logP values are reported for all entries that follow.

# molecule, logP
records = [
    ("O=C(O)CCCCCc1ccc2c(c1O)C(=O)c1c(O)cccc1C2", 4.6),
    ("COC(=O)C(CCc1ccccc1)c1ccc2c(c1O)C(=O)c1c(O)cccc1C2 (configuration not stated)", 5.17),
    ("COC(=O)CCCCc1ccc2c(c1O)C(=O)c1c(O)cccc1C2", 4.97),
    ("O=C(O)CCCCc1ccc2c(c1O)C(=O)c1c(O)cccc1C2", 4.22),
    ("COC(=O)CCCc1ccc2c(c1O)C(=O)c1c(O)cccc1C2", 4.63),
    ("COC(=O)C(C)c1ccc2c(c1O)C(=O)c1c(O)cccc1C2 (configuration not stated)", 4.16),
    ("COC(=O)CCc1ccc2c(c1O)C(=O)c1c(O)cccc1C2", 4.55),
    ("COC(=O)CCCCCc1ccc2c(c1O)C(=O)c1c(O)cccc1C2", 5.34),
    ("CC(C(=O)O)C(C)c1ccc2c(c1O)C(=O)c1c(O)cccc1C2 (configuration not stated)", 3.9),
    ("O=C(O)CCCc1ccc2c(c1O)C(=O)c1c(O)cccc1C2", 3.91),
    ("O=C1c2c(O)cccc2Cc2ccc(C(Cc3ccccc3)C(=O)O)c(O)c21 (configuration not stated)", 4.11),
    ("COC(=O)C(C)C(C)c1ccc2c(c1O)C(=O)c1c(O)cccc1C2 (configuration not stated)", 4.77),
]

====

Measured logP values are reported for all entries that follow.

# compound, logP
data = [
    ("O=C1c2c(O)cccc2Cc2ccc(C(CCc3ccccc3)C(=O)O)c(O)c21 (stereo unspecified)", 4.33),
    ("COC(=O)c1ccc(C(=O)c2ccc3c(c2O)C(=O)c2c(O)cccc2C3)cc1", 5.22),
    ("O=C(O)CCc1ccc2c(c1O)C(=O)c1c(O)cccc1C2", 3.78),
    ("COC(=O)C(Cc1ccccc1)c1ccc2c(c1O)C(=O)c1c(O)cccc1C2 (stereo unspecified)", 4.86),
    ("CC(C(=O)O)c1ccc2c(c1O)C(=O)c1c(O)cccc1C2 (stereo unspecified)", 3.4),
    ("COC(=O)Cc1ccc2c(c1O)C(=O)c1c(O)cccc1C2", 3.93),
]
